This collection of values is drawn from PubChem BioAssay.

# assayed_system: Beta-2 adrenergic receptor (Homo sapiens) (UniProt P07550)
# Sequence (P07550 whole entry, looked up): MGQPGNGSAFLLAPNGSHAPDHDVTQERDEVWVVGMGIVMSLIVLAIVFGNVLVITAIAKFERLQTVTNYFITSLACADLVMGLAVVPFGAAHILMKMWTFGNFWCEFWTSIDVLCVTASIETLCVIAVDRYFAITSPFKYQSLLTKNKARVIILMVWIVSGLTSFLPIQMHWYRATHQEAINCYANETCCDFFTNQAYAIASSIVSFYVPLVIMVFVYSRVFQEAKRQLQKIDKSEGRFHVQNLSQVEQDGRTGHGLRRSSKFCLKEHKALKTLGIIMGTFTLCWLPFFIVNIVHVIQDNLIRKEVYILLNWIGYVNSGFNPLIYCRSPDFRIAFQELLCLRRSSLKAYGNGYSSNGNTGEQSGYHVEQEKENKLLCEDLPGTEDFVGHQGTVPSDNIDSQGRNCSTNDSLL
# assay_name: beta2AR agonists driving receptor internalization, pilot screen, cell-based, FAP fluorogen, flow cytometry, validation set (AID 504459);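 further: agonist-driven loss of surface beta2AR via internalization measured by FAP dye flow cytometry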
# assay_conditions: Am2.2-beta2AR cells, FAP surface receptor flow cytometry; at 10 µM; stronger effect = higher value
endpoint_name: response (%)
Numbers only, in %.

Use these answered entries as a reference point.
CC(=O)N1N=C(c2cccs2)CC1c1ccc(C)o1 (centres undefined) = -10.5
CCN1C(=O)C(CC(=O)Nc2ccc(F)cc2)N(Cc2ccc3c(c2)OCO3)C1=S (centres undefined) = 22.9
C[C@H]1O[C@H]1P(=O)(O)O = -11.7

Fill in response for each of the 6 compounds listed.
1. CC(=O)O[C@]1(C(C)=O)CC[C@H]2[C@@H]3C=C(C)C4=CC(=O)CC[C@]4(C)[C@H]3CC[C@@]21C
2. C[C@H](NC(=O)NCCc1ccccc1)C(=O)O
3. O=C1OC(=O)C2C1[C@@H]1CC[C@H]2O1 (some centres undefined)
4. O=C(CCCN1CCC(O)(c2ccc(Cl)cc2)CC1)c1ccc(F)cc1
5. CC(=O)OCC1OC(n2ccc(=O)[nH]c2=O)C(O)C1O (centres undefined)
6. Cc1cc(C(C)(C)C)cc(C)c1CC1=NCCN1

1: -24.4; 2: 0.08; 3: -8.34; 4: -2.5; 5: -2; 6: -5.36

Fill in response for each of the 8 compounds listed.
1. CCn1c(O)c(/C=C2\C=Nc3ccccc32)sc1=O
2. CCOC(=O)Cc1c(C)nc(N)[nH]c1=O
3. CCc1ccc(/C=C2\SC(=S)N(CCC(=O)N3CCN(C)CC3)C2=O)cc1
4. NC12CC3CC(C1)CC(O)(C3)C2
5. Oc1ccc(Cl)cc1Cc1cc(Cl)ccc1O
6. CCC1(c2ccccc2)C(=O)NCNC1=O
7. CC1(C)C2CCC1(C)C(OCC[N+](C)(C)CC(=O)OC1CCCCC1)C2 (centres undefined)
8. OC(CCCN1CCCCC1)(c1ccccc1)c1ccccc1

1: -3.25; 2: -4.96; 3: 39.6; 4: -10; 5: 17.5; 6: 7.83; 7: -4.15; 8: -0.72

Fill in response for each of the 7 compounds listed.
1. O=c1n(CCCN2CCN(c3cccc(Cl)c3)CC2)nc2ccccn12
2. O=C(OCCN1CCCC1)C1(c2ccccc2)CCCC1
3. CCCC(=O)O[C@]1(C(=O)CO)CC[C@H]2[C@@H]3CCC4=CC(=O)CC[C@]4(C)[C@H]3[C@@H](O)C[C@@]21C
4. COc1ccc(-c2nc(C)c(C(C)=O)n2O)cc1OC
5. O=c1[nH]cnc2c1ncn2[C@@H]1O[C@H](CO)[C@@H](O)[C@H]1O
6. COc1cccc(OC)c1C(=O)NCCSC1CCCCC1
7. CCc1cccc2c1NC1(CCCC1)CC2C (centres undefined)

[2.3, 1.23, -0.28, -10.4, -18, 0.14, 45.9]

* * *

# assay_name: modulators of CIT2-GFP expression in yeast, confirmation, S. cerevisiae, GFP fusion, cherry picks, mother/daughter gates (AID 2274)
# assay_conditions: S. cerevisiae CIT2-GFP strain, flow cytometry, 3 h; measured here: mother cell gate; at 10 µM; stronger effect = higher value
Consider the following compounds; for each one, report its GFP response, % of DMSO.
Answers are plain numbers, in %.

Cc1ccc(NC(=O)c2ccc([N+](=O)[O-])o2)cc1C = 96
O=C(O)CCCn1nc(-c2ccccc2)c2ccccc21 = 96.8
Cc1ccc2c(c1)/C(=C/c1ccc(F)cc1)C(=O)N2 = 94.9
CCOC(=O)/C(=N\NC(=O)c1ccccc1)c1ccccc1 = 99.1
CCc1noc(C)c1C(=O)Nc1nc(-c2ccc(Cl)cc2Cl)cs1 = 93.8
CCCCCn1c(=O)c(C(=O)OCC)c(O)c2ccccc21 = 93.8
Cc1ccc(C)c(NC(=O)c2ccccc2O)c1 = 96
Cc1ccc(SC(=O)c2c(C)noc2-c2cc(C)on2)cc1 = 121

Fill in GFP response, % of DMSO for each of the 2 compounds listed.
1. CCOC(=O)CS(=O)(=O)c1nc(-c2ccccc2)cc(C(F)(F)F)n1
2. CCOC(=O)c1ccc(NC(=O)CCc2nc(-c3cccc(C)c3)no2)cc1

1: 101; 2: 99.1

Fill in GFP response, % of DMSO for each of the 6 compounds listed.
1. CCOC(=O)c1cc(-c2ccc(/C=C3/C(=O)NC(=O)C(C#N)=C3C)o2)ccc1Cl
2. CCn1c(=O)c(C(=O)NC(C)C)c(O)c2ccccc21
3. COc1ccccc1/C=C/C=N/NC(=O)c1cccs1
4. Oc1ccc(/C=N/Nc2nc(-c3cccnc3)nc3ccccc23)c(O)c1
5. O=C(NNC(=S)NC(=O)C12CC3CC(CC(C3)C1)C2)c1ccncc1
6. O=C1/C(=C/c2ccccn2)COc2ccccc21

1: 101; 2: 103; 3: 97.7; 4: 105; 5: 106; 6: 88.2

Fill in GFP response, % of DMSO for each of the 5 compounds listed.
1. Cc1ccc(S(=O)(=O)c2ccc([N+](=O)[O-])cn2)cc1
2. CN(C)S(=O)(=O)c1cc(NC(=O)CN2CCOCC2)ccc1Cl
3. C=CCn1c(=O)c(C(=O)Nc2ccccc2C(=O)OCC)c(O)c2ccccc21
4. COc1ccccc1Oc1ccc(S(=O)(=O)N2CCCC2)cc1
5. Cc1cc(NC(=O)c2cc3ccccc3o2)ccc1NC(=O)c1ccccc1

93.4
102
95.6
92.3
99.7

Fill in GFP response, % of DMSO for each of the 2 compounds listed.
1. O=C(O)C1Sc2[nH]c(=O)sc2C2c3cc(Br)ccc3OC(=O)C12 (stereo not drawn)
2. C/C(CCC12CC3CC(CC(C3)C1)C2)=N\NC(N)=S

[113, 87.8]

* * *

# assay_name: LAP4-GFP expression modulators in yeast, confirmation, cell-based, cherry picks, flow cytometry, mother/daughter gates (AID 2271);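 further: ratio of sample to DMSO plate mean so 100% equals DMSO level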
# assay_conditions: S. cerevisiae LAP4-GFP strain, 3 h, at 10 µM, 100 means same as DMSO control
The source made the active and inactive calls.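 Rule for the calls: active = GFP response above 150% of the DMSO control; inconclusive = fewer than 70 events counted in any yeast strain; inactive = the rest.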
I would appreciate it if you answered using one of these outcomes: active, inactive

Consider the following illustrative entries.
COC(=O)c1ccc2nc(Nc3nc4ccc(F)cc4s3)sc2c1 = inactive
CC1(C(=O)OCc2cc(=O)n3cc(Br)ccc3n2)CC1(Cl)Cl (stereo not given) = inactive
Cc1ccc2c(nc3s/c(=C\c4ccc(-c5ccccc5C(=O)O)o4)c(=O)n32)c1C = active
C=CCn1c(C)c(/C=C/c2cc[n+](C)cc2)c2ccccc21 = inactive

Give the logged outcome of this assay for the following compound: Cc1cc(C)n(C(=O)/C(C#N)=N\Nc2ccccc2[N+](=O)[O-])n1
inactive

* * *

# assay_name: modulators of MEP2-GFP levels in yeast, confirmation, S. cerevisiae, flow cytometry GFP, cherry picks (AID 2272);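 further: ratio of well signal to plate DMSO mean so 100% equals DMSO level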
# assay_conditions: S. cerevisiae MEP2-GFP strain, 3 h, at 10 µM, stronger effect = higher value
Consider the following molecules; for each one, report its GFP response vs DMSO.
Answers are plain numbers, in %.

Use these answered entries as a reference point.
COC(=O)c1ccc(/C=N/OCC(=O)NCCc2ccc(OC)c(OC)c2)cc1 = 102
c1ccc2oc(SCc3nc4ccccc4s3)nc2c1 = 98.3
Cc1cc(=O)n(-c2ccc3ccccc3n2)[nH]1 = 102
C=CCn1cc(/C=C/c2cc[n+](C)cc2)c2ccccc21 = 120
O=C(NCc1cccnc1)c1cnc2n(c1=O)CCS2 = 99.3
O=S(=O)(Nc1cccc(-c2ccc(N3CCCCCC3)nn2)c1)c1ccccc1F = 99
Cc1cc(NCCCN2CCOCC2)n2nc(C)c(-c3ccc(F)cc3)c2n1 = 103
COc1ccc(N2CCN(C(=O)c3ccc(OCC4CCCO4)cc3)CC2)cc1 (stereo unspecified) = 99

Fill in GFP response vs DMSO for each of the 3 molecules listed.
1. CC(=O)Nc1cccc(Oc2ccc(-c3noc(C)n3)cc2)c1
2. Cc1cccc(CS(=O)(=O)c2ncc(Cl)c(C(=O)Nc3nnc(C(C)C)s3)n2)c1
3. COc1cc(/C=C2\C(=O)ON=C2c2ccccc2)cc(Br)c1O

[107, 99.3, 99.3]

* * *

# assay_name: LAP4-GFP expression modulators in yeast, confirmation, cell-based, cherry picks, flow cytometry, mother/daughter gates (AID 2271);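 further: ratio of sample to DMSO plate mean so 100% equals DMSO level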
# assay_conditions: S. cerevisiae LAP4-GFP strain, 3 h, at 10 µM, stronger effect = higher value, 100 means same as DMSO control
Consider the following compounds; for each one, report its GFP response relative to DMSO.
Give bare numbers, in %.

CCN(CC)C(=O)c1ccc(-c2cccs2)s1 = 107

Fill in GFP response relative to DMSO for each of the 6 compounds listed.
1. CCOC(=O)C1CCCN(c2nc3c(C)cccn3c(=O)c2/C=C(\C#N)C(=O)NCc2ccco2)C1 (stereo unspecified)
2. COc1cccc(C(=O)N/N=C(\CC(C)C)c2ccccc2)c1
3. CCOC(=O)c1sc(Nc2nc3c(OC)cccc3s2)nc1C
4. Cc1ccc(CS(=O)(=O)c2ncc(Cl)c(C(=O)Nc3nnc(C)s3)n2)cc1
5. Cc1noc2ncnc(Sc3ccc(Br)cc3)c12
6. Cc1ccccc1OCC(=O)NNC(=S)NC(=O)c1ccco1

1: 101; 2: 100; 3: 97; 4: 102; 5: 137; 6: 147

Fill in GFP response relative to DMSO for each of the 4 compounds listed.
1. N#C/C(=C\c1ccccn1)c1nc2ccccc2s1
2. COc1cc(-c2noc(-c3cccc(Cl)c3)n2)cc(OC)c1OC
3. CCS(=O)(=O)Nc1cccc(C2=NN(S(C)(=O)=O)C(c3ccccc3)C2)c1 (stereo unspecified)
4. CN1CCN(C(=O)CC2C(=O)NCCN2Cc2ccc(-c3ccccc3)cc2)CC1 (stereo unspecified)

1: 584; 2: 90.6; 3: 110; 4: 100
